assay: small-molecule binders of probe aInhba, primary screen, biochemical, small-molecule microarray, 635/667 nm fluorescence (AID 1148); conditions: higher = more signal;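 further: score merges 667nm spot fluorescence with signal-to-noise for antibody binding to printed compounds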
measurement.name: composite z-score

>>> result("Cc1ccc(S[C@]2(C(=O)O)CC(=O)N(Cc3cc(C(F)(F)F)cc(C(F)(F)F)c3)[C@@H]2c2ccc(CO)cc2I)cc1")
-0.106
>>> result("CCCC=C(CCC)[C@@H](NC(=O)c1ccc(C(F)(F)F)cc1)c1ccccc1")
0.208
>>> result("O=C1C[C@@](C(=O)NCCN2CCOCC2)(c2ccc([N+](=O)[O-])cc2)[C@@H](c2ccc(CO)cc2)N1C1CCCCC1")
0.196
>>> result("C=C(/C(=C/C[C@@H](OC(=O)c1ccncc1)c1ccc(CO)o1)c1cnc2ccccc2c1)C(C)C")
0.0464
>>> result("CC(C)(C)OC(=O)CC[C@@]1(C(=O)NCc2ccccc2)N=C(c2ccc(OCCCO)cc2)O[C@@H]1c1ccccc1")
0.346
>>> result("Cc1ccc(S[C@]2(C(=O)NC3CC3)CC(=O)N(Cc3cc(C(F)(F)F)cc(C(F)(F)F)c3)[C@@H]2c2ccc(CO)cc2)cc1")
-0.128

What value of measured composite z-score is listed for C#CCCCON=C1C[C@@H](O)[C@@H](O)[C@@H]2[C@@H]3C(=O)N(Cc4ccc5c(c4)OCO5)C(=O)[C@@H]3CC[C@H]12 ? -0.261

For COc1ccc(CCN2C(=O)[C@@]3(c4ccc([N+](=O)[O-])cc4)CC(=O)N(CC45CC6CC(CC(C6)C4)C5)[C@@H]3c3ccc(CO)cc32)cc1 , what is its reported composite z-score? 0.333

Reported composite z-score for COc1cc(Cc2cc3c(c(CCc4ccccc4)n2)[Si](C(C)C)(C(C)C)OC3)cc(OC)c1OC : what is it? -0.159

For the compound shown here, CCCC[C@H]1OB(O)C[C@H]2C1=C(COC)C[C@H]1C(=O)N(Cc3ccccc3)C(=O)[C@H]12 , give the reported composite z-score. 0.124

Sample Cc1ccc(S[C@]2(C(=O)O)CC(=O)N(Cc3ccccc3)[C@@H]2c2ccc(CO)cc2)cc1 — what was its composite z-score? -0.154

I would be grateful if you could share the reported composite z-score for O=C1OCC=C[C@H]2OC34C=CCN(Cc5ccccc5)C(=O)[C@H]3N(CCCCCO)C(=O)[C@@H]4[C@@H]12 (stereo not given in full) . 0.0282

So what does the record say about composite z-score for NC(=O)NCC#Cc1ccc2c(c1)[C@]1(C(=O)N2)[C@H](C(=O)N2CCCCCCC2)[C@H]2C(=O)O[C@H](c3ccccc3)[C@H](c3ccccc3)N2[C@@H]1c1ccccc1OCCO ? 2.01

Recorded composite z-score of C=CC[C@]1(C(=O)O)N=C(c2ccc(OCCCO)cc2)O[C@H]1c1ccccc1N=[N+]=[N-] , please. -0.026

Field request: composite z-score | item: C=CC[C@@]1(C(=O)N2CCOCC2)N=C(c2ccc(OCCCO)cc2)O[C@@H]1c1ccccc1 -0.151

----------
target: Streptavidin (Streptomyces avidinii) (UniProt P22629); assay: streptavidin binders on small-molecule microarray, primary screen, artefact control for SMM compound annotation, biophysical, 635/667 nm fluorescence (AID 1147); conditions: streptavidin binding, higher = more signal;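 further: signal reflects streptavidin binding to arrayed compounds as a control protein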
Sequence (P22629 whole entry, looked up): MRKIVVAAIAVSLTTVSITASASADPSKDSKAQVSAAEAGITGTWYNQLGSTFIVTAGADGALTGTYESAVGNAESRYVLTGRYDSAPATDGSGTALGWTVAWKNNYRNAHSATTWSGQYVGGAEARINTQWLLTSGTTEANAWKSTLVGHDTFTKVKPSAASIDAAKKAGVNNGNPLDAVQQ
measurement.name: composite z-score
Give the figure by itself; no unit, no explanation.

Example cases with answers are listed next.
>>> numeric_value("COc1cc(Cc2cc3c(c(CCc4ccccc4)n2)[Si](C(C)C)(C(C)C)OC3)cc(OC)c1OC")
0.977
>>> numeric_value("C=CC[C@]1(C(N)=O)N=C(c2ccc(OCCCO)cc2)O[C@H]1c1ccccc1CN=[N+]=[N-]")
1.42
>>> numeric_value("COC(=O)Cn1c(C(=O)N2CCCC2)cc2c1C[C@H]1CN(C(=O)c3ccccc3)[C@@](Cc3ccccc3)(C(=O)OC)[C@@H]21")
0.344
>>> numeric_value("C[C@]1(C(=O)NCc2ccccc2)c2ccccc2C(=O)N(Cc2cc(C(F)(F)F)cc(C(F)(F)F)c2)[C@H]1c1ccc(CO)cc1")
0.157
>>> numeric_value("COCCCNC(=O)[C@@]1(c2ccc([N+](=O)[O-])cc2)CC(=O)N(C2CCCCC2)[C@@H]1c1ccc(CO)cc1")
-0.826

Look up composite z-score: C#CCCCON=C1C[C@@H](O)[C@@H](O)[C@@H]2[C@@H]3C(=O)N(Cc4ccc5c(c4)OCO5)C(=O)[C@@H]3CC[C@@H]12 0.571

So what's the measured composite z-score for this one? C=C(CCCC)/C(=C/C[C@@H](OC(=O)c1ccncc1)c1ccc(CO)o1)c1cnc2ccccc2c1 1.39

What measured composite z-score goes with N#Cc1ccc(NN2C(C(O)CCc3ccccc3)C=CC3C(=O)N(c4ccccc4)C(=O)C32)cc1 (stereo not drawn) ? 0.79

----------
assay: basal RPMI8226 mitochondrial membrane potential changes, profiling panel, cell-based, JC-1 fluorescence, 24 h, 100 nL compound (AID 1169); settings: RPMI8226 myeloma, JC-1 mitochondrial potential fluorescence, higher = more signal; further: test concentration not given here
# Lookup of reported z-score keyed by entry

Please review the entries below; each comes with its answer.
>>> result("O=C(NCc1ccccc1)[C@@]1(Cc2ccccc2)COC(c2ccc(OCCCO)cc2)=N1")
-1.06
>>> result("C=CCc1cccc([C@@H]2[C@@H](C)CC[C@H]3C(=O)N4[C@H](c5cccc(CC=C)c5)[C@@H](C)CC[C@H]4C(=O)N23)c1")
-0.811

Given the compound O=C1O[C@@H](c2ccccc2)[C@@H](c2ccccc2)N2[C@@H](c3ccc(OCCO)cc3)[C@]3(C(=O)Nc4ccc(C#CCCO)cc43)[C@@H](C(=O)N3CCN(c4ncccn4)CC3)[C@H]12 , what is its reported z-score? -0.623

----------
Catalogue of composite z-score values
molecular target: Calmodulin-1 (Homo sapiens) (UniProt P0DP23); assay: calcium-bound CALM1 binders on microarrays, profiling panel, artefact control for SMM control-protein annotation, biochemical, small-molecule microarray, Cy5-labelled CALM1, plus calcium (AID 1112); conditions: Cy5-CALM1 binding fluorescence, higher = more signal;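 further: score merges spot fluorescence with signal to noise from triplicate slides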
Lab note: write the figure by itself, no unit.

>>> numeric_value("COC(=O)Cn1c(C(=O)N2CCCC2)cc2c1C[C@H]1CN(C(=O)c3ccccc3)[C@@](Cc3ccc(OC)cc3)(C(=O)OC)[C@@H]21")
0.367
>>> numeric_value("O=C1C2C=CC(C(O)C#Cc3ccccc3)N(Nc3ccccc3)C2C(=O)N1c1ccccc1 (configuration not stated)")
0.373
>>> numeric_value("COCCOC(=O)N1C(=O)[C@@]2(c3ccccc31)[C@H](C(=O)N1CCc3cc(OC)c(OC)cc3C1)[C@H]1C(=O)O[C@H](c3ccccc3)[C@H](c3ccccc3)N1[C@@H]2c1ccccc1OCCO")
0.868
>>> numeric_value("COc1cccc([C@@H]2[C@@H](C)CC[C@H]3C(=O)N4[C@H](c5cccc(OC)c5)[C@@H](C)CC[C@H]4C(=O)N23)c1")
-0.781
>>> numeric_value("COCCOC(=O)N1C(=O)[C@@]2(c3cc(C#CCC(C(=O)OC)C(=O)OC)ccc31)[C@H](C(=O)N1CCN(c3ncccn3)CC1)[C@H]1C(=O)O[C@H](c3ccccc3)[C@H](c3ccccc3)N1[C@@H]2c1ccc(O)cc1")
0.601

Param readout = composite z-score; param system = Calmodulin-1 (Homo sapiens) (UniProt P0DP23); param query = C/C(=N\O)C(=O)NCCCCCNC(=O)OCc1ccccc1 ; response: value -0.269

What reported composite z-score corresponds to O=C(NCc1ccccc1)[C@@]1(CCS(=O)(=O)c2ccccc2)COC(c2ccc(OCCCO)cc2)=N1 on Calmodulin-1 (Homo sapiens) (UniProt P0DP23)? 1.11

----------
target: Dihydroorotate dehydrogenase (quinone), mitochondrial (Plasmodium falciparum (isolate 3D7)) (UniProt Q08210); test: PfDHODH enzyme inhibitors, primary screen, biochemical, C-terminal His tag, absorbance 600 nm (AID 1175); conditions: DCIP absorbance 600 nm, higher = more signal, called active from +8 up or from −8 down;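 further: recombinant parasite enzyme with a five histidine tag at its C terminus; test concentration not given here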
Sequence (Q08210 whole entry, looked up): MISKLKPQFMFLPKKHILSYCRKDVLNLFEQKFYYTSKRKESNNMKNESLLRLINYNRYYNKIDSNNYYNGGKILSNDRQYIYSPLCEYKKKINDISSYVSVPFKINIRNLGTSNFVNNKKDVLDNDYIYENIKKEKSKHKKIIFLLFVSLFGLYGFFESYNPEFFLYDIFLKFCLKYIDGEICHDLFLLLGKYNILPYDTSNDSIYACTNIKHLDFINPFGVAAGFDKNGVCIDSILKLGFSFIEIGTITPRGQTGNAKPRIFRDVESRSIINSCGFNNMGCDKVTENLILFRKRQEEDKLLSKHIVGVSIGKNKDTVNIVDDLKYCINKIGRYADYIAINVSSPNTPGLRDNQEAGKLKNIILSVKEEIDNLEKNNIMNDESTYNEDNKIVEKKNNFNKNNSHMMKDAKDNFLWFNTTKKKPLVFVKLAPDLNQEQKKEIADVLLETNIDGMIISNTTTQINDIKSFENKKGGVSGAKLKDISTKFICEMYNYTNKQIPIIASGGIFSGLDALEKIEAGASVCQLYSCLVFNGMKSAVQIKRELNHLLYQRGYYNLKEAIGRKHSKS
Rule: satisfied for composite z-score not less than -0.7, not satisfied for anything less.

Kindly determine if composite z-score recorded for C=CC[C@]1(C(=O)OC)N=C(c2ccc(OCCCO)cc2)O[C@H]1c1ccccc1CN=[N+]=[N-] is above or exactly -0.7. satisfied

----------
Catalogue of molecules with associated z-score
assay: E. coli DRC41 culture turbidity changes, primary screen, E. coli filamentation inducer project, strain DRC41, OD650, 48 h (AID 1152);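 further: E. coli MC1000 strain DRC41 lacking acrAB efflux pump and sulA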; conditions: E. coli DRC41 (acrAB sulA), higher = more signal, called active from +8 up or from −8 down
Number only, no unit.

>>> numeric_value("O=C1c2ccccc2[C@](Cc2ccccc2I)(C(=O)NCC(F)(F)F)[C@H](c2ccc(CO)cc2)N1Cc1ccccc1C(F)(F)F")
1.37
>>> numeric_value("C=CCOC(=O)[C@@H]1[C@H]2C(=O)O[C@H](c3ccccc3)[C@H](c3ccccc3)N2[C@H](c2ccc(OCCOC(=O)[C@H]3C[C@H]4C(=O)N5CCC[C@H]5C(=O)N4[C@H]3c3ccc(O)cc3)cc2)[C@@]12C(=O)Nc1ccccc12")
2.34
>>> numeric_value("CCCC[C@H]1OB(O)C[C@H]2C1=C(COC)C[C@H]1C(=O)N(Cc3ccccc3)C(=O)[C@H]12")
2.78
>>> numeric_value("CN1C2C=C(c3ccc(CO)cc3)C(C3C(=O)N(C(N)=O)C(=O)C32)C1c1cccs1 (configuration not stated)")
1.37
>>> numeric_value("O=C1c2ccccc2[C@](Cc2ccccc2I)(C(=O)NCc2ccccc2)[C@H](c2ccc(CO)cc2)N1Cc1ccccc1C(F)(F)F")
1.73

// returns reported z-score for input Cc1ccc(S[C@]2(C(=O)NCCN3CCOCC3)CC(=O)N(C3Cc4ccccc4C3)[C@@H]2c2ccc(CO)cc2I)cc1 1.86

Request the reported z-score associated with CCOC(=O)C1=CC[C@@H](c2ccc(-c3ccc(OCc4ccccc4)cc3)c(OC)c2)N(S(=O)(=O)c2ccc(C)cc2)[C@H]1c1ccccc1 -0.0232

These measurements were taken from PubChem BioAssay.
